target: cyBCMA; experiment: Kinetics and affinity of cyBCMA/human IgG interactions by SPR (Bio-Rad Proteon XPR36); assay type: binding, cynomolgus; conditions: 25° C.
Endpoint: kd (1/s) cyBCMA @25° C. (s⁻¹)
Numbers only here, please. The scale is s⁻¹.

For the molecule L1.LGF/L3.NY/H3.AP: anti-BCMA antibody (antibody, V domains shown) VH: EVQLLESGGGLVQPGGSLRLSCAASGFTFGSYAMTWVRQAPGKGLEWVSAISGSGGNTFYADSVKGRFTISRDNSKNTLYLQMNSLRAEDTAVYYCARVSPIAAPMDYWGQGTLVTVSS VL: EIVLTQSPGTLSLSPGERATLSCRASQSLGSFYLAWYQQKPGQAPRLLIYGASSRATGIPDRFSGSGSGTDFTLTISRLEPEDFAVYYCQHYNYPPSFTFGQGTKVEIK , give its measured kd (1/s) cyBCMA @25° C. value.
0.00557

For the molecule L1.LGF/L3.PY/H3.AP: anti-BCMA antibody (antibody, V domains shown) VH: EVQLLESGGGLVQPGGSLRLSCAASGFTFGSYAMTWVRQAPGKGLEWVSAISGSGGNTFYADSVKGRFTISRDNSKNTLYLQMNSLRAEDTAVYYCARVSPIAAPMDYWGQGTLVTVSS VL: EIVLTQSPGTLSLSPGERATLSCRASQSLGSFYLAWYQQKPGQAPRLLIYGASSRATGIPDRFSGSGSGTDFTLTISRLEPEDFAVYYCQHYPYPPSFTFGQGTKVEIK , give its measured kd (1/s) cyBCMA @25° C. value.
0.013

For the molecule L1.GDF/L3.KW/H3.AL: anti-BCMA antibody (antibody, V domains shown) VH: EVQLLESGGGLVQPGGSLRLSCAASGFTFGSYAMTWVRQAPGKGLEWVSAISGSGGNTFYADSVKGRFTISRDNSKNTLYLQMNSLRAEDTAVYYCARVSPIAALMDYWGQGTLVTVSS VL: EIVLTQSPGTLSLSPGERATLSCRASQSVGDFYLAWYQQKPGQAPRLLIYGASSRATGIPDRFSGSGSGTDFTLTISRLEPEDFAVYYCKHYGWPPSFTFGQGTKVEIK , give its measured kd (1/s) cyBCMA @25° C. value.
0.018

For the molecule L1.GDF/L3.NY/H3.AL: anti-BCMA antibody (antibody, V domains shown) VH: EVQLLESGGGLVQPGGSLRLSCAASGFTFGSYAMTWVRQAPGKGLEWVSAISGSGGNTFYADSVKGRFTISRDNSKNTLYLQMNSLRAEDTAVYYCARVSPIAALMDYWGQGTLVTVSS VL: EIVLTQSPGTLSLSPGERATLSCRASQSVGDFYLAWYQQKPGQAPRLLIYGASSRATGIPDRFSGSGSGTDFTLTISRLEPEDFAVYYCQHYNYPPSFTFGQGTKVEIK , give its measured kd (1/s) cyBCMA @25° C. value.
0.0219

For the molecule L1.LGF/L3.NY/H3.AL: anti-BCMA antibody (antibody, V domains shown) VH: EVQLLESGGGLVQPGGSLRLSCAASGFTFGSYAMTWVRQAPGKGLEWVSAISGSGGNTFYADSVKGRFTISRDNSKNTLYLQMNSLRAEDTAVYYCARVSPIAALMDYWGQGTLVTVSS VL: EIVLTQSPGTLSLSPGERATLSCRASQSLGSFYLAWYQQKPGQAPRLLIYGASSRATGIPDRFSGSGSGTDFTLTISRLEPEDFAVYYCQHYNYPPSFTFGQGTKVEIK , give its measured kd (1/s) cyBCMA @25° C. value.
0.0148

For the molecule L1.GDF/L3.NY/H3.AP: anti-BCMA antibody (antibody, V domains shown) VH: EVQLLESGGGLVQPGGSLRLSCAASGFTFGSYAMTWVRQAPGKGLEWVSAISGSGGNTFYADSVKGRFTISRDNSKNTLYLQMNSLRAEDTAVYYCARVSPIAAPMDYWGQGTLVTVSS VL: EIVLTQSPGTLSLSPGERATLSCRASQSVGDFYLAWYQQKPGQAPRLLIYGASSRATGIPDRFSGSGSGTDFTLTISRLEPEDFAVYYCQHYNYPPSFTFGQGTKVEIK , give its measured kd (1/s) cyBCMA @25° C. value.
0.00702

For the molecule L1.LGF/L3.KW/H3.AP: anti-BCMA antibody (antibody, V domains shown) VH: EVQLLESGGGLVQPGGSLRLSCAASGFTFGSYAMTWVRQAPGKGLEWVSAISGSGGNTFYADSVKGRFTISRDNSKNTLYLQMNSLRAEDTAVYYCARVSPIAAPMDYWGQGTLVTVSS VL: EIVLTQSPGTLSLSPGERATLSCRASQSLGSFYLAWYQQKPGQAPRLLIYGASSRATGIPDRFSGSGSGTDFTLTISRLEPEDFAVYYCKHYGWPPSFTFGQGTKVEIK , give its measured kd (1/s) cyBCMA @25° C. value.
0.0154

For the molecule L1.GDF/L3.KW/H3.AP: anti-BCMA antibody (antibody, V domains shown) VH: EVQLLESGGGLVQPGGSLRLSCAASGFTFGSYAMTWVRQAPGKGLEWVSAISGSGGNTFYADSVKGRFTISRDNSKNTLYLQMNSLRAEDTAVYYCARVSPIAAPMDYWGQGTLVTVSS VL: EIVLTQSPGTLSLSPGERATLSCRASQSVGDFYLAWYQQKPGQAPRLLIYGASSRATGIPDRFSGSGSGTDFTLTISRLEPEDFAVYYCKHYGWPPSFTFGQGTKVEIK , give its measured kd (1/s) cyBCMA @25° C. value.
0.0203

For the molecule L1.LGF/L3.KW/H3.AL: anti-BCMA antibody (antibody, V domains shown) VH: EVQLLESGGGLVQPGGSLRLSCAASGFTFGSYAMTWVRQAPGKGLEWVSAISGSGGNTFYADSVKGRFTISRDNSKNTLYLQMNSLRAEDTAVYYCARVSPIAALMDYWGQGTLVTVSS VL: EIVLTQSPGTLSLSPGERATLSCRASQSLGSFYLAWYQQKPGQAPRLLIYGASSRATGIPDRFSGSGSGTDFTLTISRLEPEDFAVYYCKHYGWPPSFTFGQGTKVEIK , give its measured kd (1/s) cyBCMA @25° C. value.
0.0121

Sourced from patent US11814435B2
